Quick reference for LD50 among some compounds
- ASSAY_METHOD_TEXT: acute toxicity test
- COND: mouse, in vivo; ICR-stain male mice (7 weeks old), intravenous administration
ENDPOINT_LABEL: LD50 (mg/kg)

INSERT INTO measurements (compound, experimental_result) VALUES
  ('CC(CCCCCCn1ccnc1)C(=O)O.Cl (racemic)', 540),
  ('CC(C)(CCCCCCn1ccnc1)C(=O)O.Cl', 330);
